# measured_target: Nicotinic acetylcholine receptor alpha6/alpha3/beta2/beta3 (Rattus norvegicus, UniProt P04757+P12390+P12391+P43143)
# Sequence (P04757 whole entry): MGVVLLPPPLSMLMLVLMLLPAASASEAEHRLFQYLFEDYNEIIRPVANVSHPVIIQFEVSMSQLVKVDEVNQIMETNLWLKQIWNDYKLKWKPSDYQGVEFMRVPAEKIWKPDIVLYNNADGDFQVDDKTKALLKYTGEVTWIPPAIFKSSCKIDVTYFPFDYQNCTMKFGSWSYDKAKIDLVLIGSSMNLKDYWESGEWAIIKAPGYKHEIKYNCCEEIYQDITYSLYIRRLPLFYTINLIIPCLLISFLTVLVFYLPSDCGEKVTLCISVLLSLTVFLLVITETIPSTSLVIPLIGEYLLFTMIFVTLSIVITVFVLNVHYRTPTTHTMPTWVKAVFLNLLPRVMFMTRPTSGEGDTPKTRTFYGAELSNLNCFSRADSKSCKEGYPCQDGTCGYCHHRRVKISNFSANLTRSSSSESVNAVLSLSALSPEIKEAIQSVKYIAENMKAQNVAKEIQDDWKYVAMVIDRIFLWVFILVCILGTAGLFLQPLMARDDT
# Sequence (P12390 whole entry): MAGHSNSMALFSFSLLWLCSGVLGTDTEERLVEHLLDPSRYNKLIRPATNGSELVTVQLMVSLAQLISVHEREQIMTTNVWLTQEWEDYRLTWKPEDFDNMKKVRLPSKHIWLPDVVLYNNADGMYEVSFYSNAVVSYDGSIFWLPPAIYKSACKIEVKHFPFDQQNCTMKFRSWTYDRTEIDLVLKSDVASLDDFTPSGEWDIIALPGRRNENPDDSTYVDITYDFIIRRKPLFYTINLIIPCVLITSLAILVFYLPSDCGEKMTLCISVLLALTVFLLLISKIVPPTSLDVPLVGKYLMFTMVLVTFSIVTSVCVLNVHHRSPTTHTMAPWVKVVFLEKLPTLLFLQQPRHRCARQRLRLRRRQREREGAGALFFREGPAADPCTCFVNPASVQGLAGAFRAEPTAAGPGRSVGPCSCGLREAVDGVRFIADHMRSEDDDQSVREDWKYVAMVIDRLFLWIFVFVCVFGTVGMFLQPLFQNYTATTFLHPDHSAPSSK
# Sequence (P12391 whole entry): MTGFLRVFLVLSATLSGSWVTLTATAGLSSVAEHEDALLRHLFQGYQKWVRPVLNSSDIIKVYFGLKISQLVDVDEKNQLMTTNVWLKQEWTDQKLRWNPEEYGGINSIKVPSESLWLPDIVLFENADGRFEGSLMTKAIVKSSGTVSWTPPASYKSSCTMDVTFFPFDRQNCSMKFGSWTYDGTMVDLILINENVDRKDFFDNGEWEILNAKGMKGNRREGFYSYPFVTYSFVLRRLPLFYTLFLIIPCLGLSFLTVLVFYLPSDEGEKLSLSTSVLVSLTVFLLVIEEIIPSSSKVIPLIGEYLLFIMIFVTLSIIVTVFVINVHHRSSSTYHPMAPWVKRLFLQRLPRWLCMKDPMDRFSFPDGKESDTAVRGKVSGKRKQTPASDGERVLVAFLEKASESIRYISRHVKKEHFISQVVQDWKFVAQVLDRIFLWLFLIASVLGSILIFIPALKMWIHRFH
# Sequence (P43143 whole entry): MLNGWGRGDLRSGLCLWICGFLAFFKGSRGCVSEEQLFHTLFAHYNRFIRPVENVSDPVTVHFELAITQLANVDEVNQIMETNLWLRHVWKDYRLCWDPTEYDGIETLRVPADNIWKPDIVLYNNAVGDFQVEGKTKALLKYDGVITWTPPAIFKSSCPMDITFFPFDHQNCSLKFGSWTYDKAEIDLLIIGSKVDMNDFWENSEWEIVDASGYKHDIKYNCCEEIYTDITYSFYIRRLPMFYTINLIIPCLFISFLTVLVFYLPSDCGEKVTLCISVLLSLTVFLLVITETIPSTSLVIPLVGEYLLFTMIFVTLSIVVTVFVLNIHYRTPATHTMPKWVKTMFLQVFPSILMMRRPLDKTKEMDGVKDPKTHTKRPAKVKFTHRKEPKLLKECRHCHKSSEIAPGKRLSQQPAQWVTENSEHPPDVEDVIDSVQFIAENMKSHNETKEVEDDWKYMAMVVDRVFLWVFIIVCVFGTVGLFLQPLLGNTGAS
# test_protocol: Agonist activity at alpha6/alpha3beta2beta3 nAChR in Sprague-Dawley rat striatal synaptosomes assessed as induction of dopamine release
test_readout: EC50 (nM)

- CC(C)Oc1cncc(C2=CC3CC(C2)CN(C)C3)c1 (configuration not stated): 879
- C1=C(c2cccnc2)C[C@H]2CNC[C@@H]1C2: 0.95
- C1=C(c2cccnc2)C[C@@H]2CNC[C@H]1C2: 1.4
- CC(C)Oc1cncc(C2=CC3CNCC(C2)C3)c1 (configuration not stated): 1090
- C1=C(c2cncc(Oc3ccccc3)c2)CC2CNCC1C2 (configuration not stated): 718
- CN1C[C@@H]2C=C(c3cccnc3)C[C@@H](C2)C1: 855

---

# measured_target: Neuronal acetylcholine receptor; alpha3/beta4 (Homo sapiens, UniProt P30926+P32297)
# Sequence (P30926 whole entry): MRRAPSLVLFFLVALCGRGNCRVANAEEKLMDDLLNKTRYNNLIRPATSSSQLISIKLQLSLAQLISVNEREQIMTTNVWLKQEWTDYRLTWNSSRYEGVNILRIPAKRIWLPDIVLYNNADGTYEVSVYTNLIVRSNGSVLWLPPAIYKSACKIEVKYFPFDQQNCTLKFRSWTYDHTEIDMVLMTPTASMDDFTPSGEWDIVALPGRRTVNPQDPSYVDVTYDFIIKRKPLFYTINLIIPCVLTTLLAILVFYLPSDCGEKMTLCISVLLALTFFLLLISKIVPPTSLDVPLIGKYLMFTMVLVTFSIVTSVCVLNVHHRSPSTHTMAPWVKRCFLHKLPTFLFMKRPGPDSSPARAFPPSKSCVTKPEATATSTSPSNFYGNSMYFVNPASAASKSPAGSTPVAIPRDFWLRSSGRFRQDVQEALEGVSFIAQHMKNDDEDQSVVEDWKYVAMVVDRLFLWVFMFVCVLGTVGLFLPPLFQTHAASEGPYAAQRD
# Sequence (P32297 whole entry): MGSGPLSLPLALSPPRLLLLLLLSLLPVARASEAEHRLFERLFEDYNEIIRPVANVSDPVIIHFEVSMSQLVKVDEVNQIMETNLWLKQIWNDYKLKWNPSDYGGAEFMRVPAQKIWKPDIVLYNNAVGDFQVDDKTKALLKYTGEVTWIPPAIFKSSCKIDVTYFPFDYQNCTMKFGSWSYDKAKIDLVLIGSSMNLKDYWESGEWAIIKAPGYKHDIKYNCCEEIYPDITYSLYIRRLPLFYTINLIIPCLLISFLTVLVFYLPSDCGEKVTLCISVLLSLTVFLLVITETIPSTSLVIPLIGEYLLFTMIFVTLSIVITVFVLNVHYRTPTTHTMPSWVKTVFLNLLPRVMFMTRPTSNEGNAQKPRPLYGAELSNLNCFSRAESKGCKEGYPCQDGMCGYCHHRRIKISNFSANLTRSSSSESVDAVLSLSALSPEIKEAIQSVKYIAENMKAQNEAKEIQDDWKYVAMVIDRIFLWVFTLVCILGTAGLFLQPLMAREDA
# test_protocol: Agonist activity at human alpha3beta4 nAChR expressed in human SH-SY5Y cells assessed as increase in calcium flux by FLIPR relative to 10 uM nicotine
# Type: functional, cell-based
test_readout: %max (%)

• CN1CC2C=C(c3ccc(F)nc3)CC(C2)C1 (configuration not stated) = 25
• N#Cc1cncc(C2=C[C@@H]3CNC[C@H](C2)C3)c1 = 144
• CC(C)Oc1cncc(C2=CC3CNCC(C2)C3)c1 (configuration not stated) = 160
• Fc1cncc(C2=C[C@@H]3CNC[C@H](C2)C3)c1 = 153
• C1=C(c2cccnc2)C[C@@H]2CNC[C@H]1C2 = 139
• CN1C[C@H]2C=C(c3cccnc3)C[C@H](C2)C1 = 31
• N#Cc1ccncc1C1=CC2CNCC(C1)C2 (configuration not stated) = 130
• CC(C)Oc1cncc(C2=CC3CC(C2)CN(C)C3)c1 (configuration not stated) = 15
• Fc1cncc(C2=C[C@H]3CNC[C@@H](C2)C3)c1 = 140
• Fc1ccc(C2=CC3CNCC(C2)C3)cn1 (configuration not stated) = 140
• COc1ccc(C2=CC3CC(C2)CN(C)C3)cn1 (configuration not stated) = 61
• C1=C(c2cncc(Oc3ccccc3)c2)CC2CNCC1C2 (configuration not stated) = 101

---

# measured_target: Neuronal acetylcholine receptor; alpha4/beta2 (Homo sapiens, UniProt P17787+P43681)
# Sequence (P17787 whole entry): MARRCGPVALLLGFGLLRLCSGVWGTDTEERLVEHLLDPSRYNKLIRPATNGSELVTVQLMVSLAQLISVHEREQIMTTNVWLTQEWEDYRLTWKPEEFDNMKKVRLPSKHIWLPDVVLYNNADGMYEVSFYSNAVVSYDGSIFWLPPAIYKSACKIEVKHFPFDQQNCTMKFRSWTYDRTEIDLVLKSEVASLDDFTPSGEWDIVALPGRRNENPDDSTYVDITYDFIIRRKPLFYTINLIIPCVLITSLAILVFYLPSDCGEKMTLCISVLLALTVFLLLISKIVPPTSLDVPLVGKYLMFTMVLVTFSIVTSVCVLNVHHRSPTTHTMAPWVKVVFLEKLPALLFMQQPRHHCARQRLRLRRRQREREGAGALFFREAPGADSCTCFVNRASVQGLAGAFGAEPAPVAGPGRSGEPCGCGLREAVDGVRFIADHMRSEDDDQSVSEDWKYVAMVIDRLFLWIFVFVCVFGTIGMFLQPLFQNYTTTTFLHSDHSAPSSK
# Sequence (P43681 whole entry): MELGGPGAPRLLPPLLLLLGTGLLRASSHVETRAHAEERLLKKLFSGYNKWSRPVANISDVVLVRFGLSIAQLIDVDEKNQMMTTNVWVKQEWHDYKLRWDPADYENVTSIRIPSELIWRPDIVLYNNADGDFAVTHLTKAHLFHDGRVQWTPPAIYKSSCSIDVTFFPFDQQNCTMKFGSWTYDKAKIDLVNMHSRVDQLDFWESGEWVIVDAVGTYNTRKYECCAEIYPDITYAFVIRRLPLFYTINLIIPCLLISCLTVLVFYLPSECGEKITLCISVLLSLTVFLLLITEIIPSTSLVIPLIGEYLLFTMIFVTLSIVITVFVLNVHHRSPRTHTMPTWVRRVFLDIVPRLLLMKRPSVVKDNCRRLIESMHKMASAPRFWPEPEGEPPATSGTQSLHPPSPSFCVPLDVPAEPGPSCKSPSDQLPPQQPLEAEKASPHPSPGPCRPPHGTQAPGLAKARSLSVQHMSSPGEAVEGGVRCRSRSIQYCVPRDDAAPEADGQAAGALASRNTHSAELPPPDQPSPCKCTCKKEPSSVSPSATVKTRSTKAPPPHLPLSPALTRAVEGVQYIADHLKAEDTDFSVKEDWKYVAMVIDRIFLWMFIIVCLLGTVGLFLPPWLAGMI
# test_protocol: Agonist activity at human alpha4beta2 nAChR low sensitivity form expressed in human SH-EP1 cells assessed as increase in calcium flux by FLIPR relative to 10 uM nicotine
# Assay type: functional, cell-based
Listed molecules paired with reported %max
test_readout: %max (%)

• Cc1ccc(C2=CC3CNCC(C2)C3)cn1 (configuration not stated) = 112
• CC(C)Oc1cncc(C2=CC3CNCC(C2)C3)c1 (configuration not stated) = 54
• Clc1ccncc1C1=CC2CNCC(C1)C2 (configuration not stated) = 12.8
• N#Cc1cncc(C2=C[C@@H]3CNC[C@H](C2)C3)c1 = 89
• C1=C(c2cncc(-c3ccccc3)c2)CC2CNCC1C2 (configuration not stated) = 5.3
• CN1C[C@H]2C=C(c3cccnc3)C[C@H](C2)C1 = 11
• C1=C(c2cncnc2)CC2CNCC1C2 (configuration not stated) = 145

---

# measured_target: Neuronal acetylcholine receptor; alpha3/beta4 (Homo sapiens, UniProt P30926+P32297)
# test_protocol: Agonist activity at human alpha3beta4 nAChR expressed in human SH-SY5Y cells assessed as increase in calcium flux by FLIPR
Strictly below 100 nM in EC50: rule met. Otherwise: rule not met.

• N#Cc1cncc(C2=C[C@@H]3CNC[C@H](C2)C3)c1 = rule not met
• C1=C(c2ccc(-c3ccccc3)nc2)CC2CNCC1C2 (stereo unspecified) = rule not met
• C1=C(c2cncc(Oc3ccccc3)c2)CC2CNCC1C2 (stereo unspecified) = rule met
• CN1C[C@H]2C=C(c3cccnc3)C[C@H](C2)C1 = rule not met
• CN1C[C@@H]2C=C(c3cccnc3)C[C@@H](C2)C1 = rule not met

---

# measured_target: Neuronal acetylcholine receptor; alpha4/beta2 (Homo sapiens, UniProt P17787+P43681)
# test_protocol: Displacement of [3H]nicotine from human alpha4beta2 nAChR expressed in human SH-EP1 cells
We begin with a simple list: items and their reported Ki.
test_readout: Ki (nM)

• C1=C(c2cccnc2)C[C@@H]2CNC[C@H]1C2 = 0.1
• Clc1ccncc1C1=CC2CNCC(C1)C2 (centres undefined) = 3
• N#Cc1cncc(C2=C[C@@H]3CNC[C@H](C2)C3)c1 = 0.3
• COc1cncc(C2=CC3CNCC(C2)C3)c1 (centres undefined) = 0.3
• C1=C(c2cncc(-c3ccccc3)c2)CC2CNCC1C2 (centres undefined) = 0.8
• COc1ccc(C2=CC3CNCC(C2)C3)cn1 (centres undefined) = 0.4
• FC(F)(F)c1cncc(C2=CC3CNCC(C2)C3)c1 (centres undefined) = 0.7
• CN1CC2C=C(c3ccc(F)nc3)CC(C2)C1 (centres undefined) = 18
• c1cncc(N2CC3CNCC(C3)C2)c1 = 0.1

---

# measured_target: Neuronal acetylcholine receptor; alpha4/beta2 (Homo sapiens, UniProt P17787+P43681)
# test_protocol: Agonist activity at human alpha4beta2 nAChR high sensitivity form expressed in human SH-EP1 cells assessed as increase in calcium flux by FLIPR
# Type: functional, cell-based
Entries and their EC50 values follow.
test_readout: EC50 (nM)

• N#Cc1ccncc1C1=CC2CNCC(C1)C2 (stereo unspecified) = 3250
• Fc1ccc(C2=CC3CNCC(C2)C3)cn1 (stereo unspecified) = 85
• CC(C)Oc1cncc(C2=CC3CNCC(C2)C3)c1 (stereo unspecified) = 164
• C1=C(c2cccnc2)C[C@H]2CNC[C@@H]1C2 = 2.3
• COc1cncc(C2=CC3CC(C2)CN(C)C3)c1 (stereo unspecified) = 2660
• Clc1ccc(C2=CC3CNCC(C2)C3)nn1 (stereo unspecified) = 80
• N#Cc1cncc(C2=C[C@@H]3CNC[C@H](C2)C3)c1 = 107
• CN1CC2C=C(c3cncc(Oc4ccccc4)c3)CC(C2)C1 (stereo unspecified) = 183
• COc1cncc(C2=CC3CNCC(C2)C3)c1 (stereo unspecified) = 49
• C1=C(c2cncnc2)CC2CNCC1C2 (stereo unspecified) = 240

---

# measured_target: Neuronal acetylcholine receptor; alpha3/beta4 (Homo sapiens, UniProt P30926+P32297)
# test_protocol: Displacement of [3H]epibatidine from human alpha3beta4 nAChR expressed in human SH-SY5Y cells
Attribute: Ki
test_readout: Ki (nM)

- CN1CC2C=C(c3cncc(F)c3)CC(C2)C1 (centres undefined): 1640
- COc1cccc(Oc2cncc(C3=CC4CNCC(C3)C4)c2)c1 (centres undefined): 15
- C1=C(c2ccc3nccnc3c2)CC2CNCC1C2 (centres undefined): 5740
- Clc1cccc(Oc2cncc(C3=CC4CNCC(C3)C4)c2)c1 (centres undefined): 22
- COc1cc(C2=CC3CC(C2)CN(C)C3)cnc1Cl (centres undefined): 1430
- Clc1ccc(C2=CC3CNCC(C2)C3)cn1 (centres undefined): 6.2
- Fc1cncc(C2=C[C@H]3CNC[C@@H](C2)C3)c1: 8.3
- c1cncc(N2CC3CNCC(C3)C2)c1: 6.6
- C1=C(c2cnccn2)CC2CNCC1C2 (centres undefined): 828

---

# measured_target: Neuronal acetylcholine receptor; alpha3/beta4 (Homo sapiens, UniProt P30926+P32297)
# test_protocol: Displacement of [3H]epibatidine from human alpha3beta4 nAChR expressed in human SH-SY5Y cells
pKi: −log10 of the molar value.
If the reported pKi equals or exceeds 8, assign yes (1). If not, assign no (0).

- COc1ccc(Oc2cncc(C3=CC4CNCC(C3)C4)c2)cc1 (configuration not stated): no (0)
- Cc1ccc(C2=CC3CNCC(C2)C3)cn1 (configuration not stated): no (0)
- Clc1ccc(C2=CC3CNCC(C2)C3)nn1 (configuration not stated): no (0)
- Fc1cncc(C2=C[C@@H]3CNC[C@H](C2)C3)c1: yes (1)
- CC(C)Oc1cncc(C2=CC3CNCC(C2)C3)c1 (configuration not stated): yes (1)
- CN1C[C@H]2C=C(c3cccnc3)C[C@H](C2)C1: no (0)
- Clc1ccccc1Oc1cncc(C2=CC3CNCC(C2)C3)c1 (configuration not stated): no (0)

---

# measured_target: Neuronal acetylcholine receptor; alpha4/beta2 (Homo sapiens, UniProt P17787+P43681)
# test_protocol: Agonist activity at human alpha4beta2 nAChR high sensitivity form expressed in human SH-EP1 cells assessed as increase in calcium flux by FLIPR relative to 10 uM nicotine
# Format: functional, cell-based
Label criterion met when %max is strictly below 60%; at or above that, label criterion not met.

- C1=C(c2cncc(-c3ccccc3)c2)CC2CNCC1C2 (stereo unspecified): criterion met
- N#Cc1cncc(C2=C[C@@H]3CNC[C@H](C2)C3)c1: criterion not met
- CC(C)Oc1cncc(C2=CC3CC(C2)CN(C)C3)c1 (stereo unspecified): criterion met
- Clc1ccncc1C1=CC2CNCC(C1)C2 (stereo unspecified): criterion met
- COc1ccc(C2=CC3CC(C2)CN(C)C3)cn1 (stereo unspecified): criterion not met
- CN1CC2C=C(c3cncc(Oc4ccccc4)c3)CC(C2)C1 (stereo unspecified): criterion met
- C1=C(c2ccc(-c3ccccc3)nc2)CC2CNCC1C2 (stereo unspecified): criterion met
- Fc1cncc(C2=C[C@@H]3CNC[C@H](C2)C3)c1: criterion not met
- C1=C(c2cccnc2)C[C@H]2CNC[C@@H]1C2: criterion not met
- N#Cc1ccncc1C1=CC2CNCC(C1)C2 (stereo unspecified): criterion met
- CC(C)Oc1cncc(C2=CC3CNCC(C2)C3)c1 (stereo unspecified): criterion not met
- COc1cncc(C2=CC3CNCC(C2)C3)c1 (stereo unspecified): criterion not met
- COc1cncc(C2=CC3CC(C2)CN(C)C3)c1 (stereo unspecified): criterion met
- Cc1ccc(C2=CC3CNCC(C2)C3)cn1 (stereo unspecified): criterion not met
- C1=C(c2cncnc2)CC2CNCC1C2 (stereo unspecified): criterion not met
- Fc1ccc(C2=CC3CNCC(C2)C3)cn1 (stereo unspecified): criterion not met

Origin of values: ChEMBL document CHEMBL2176949
